Experimental endpoint: melting point

Worked examples, 4 compounds total:
COC(=O)c1csc2nc(N)sc12 : 221 to 223 °C
Cc1cccc(COn2nnc3ccc(Cn4ccnc4)cc32)c1 : 120 °C
CC(C)(C)c1ccc2c(c1)CNC2=O : 132 to 134 °C
Clc1ccccc1C1=NOC(c2ccccc2Cl)N1 (stereo unspecified) : 75 to 78 °C

q: Find the recorded melting point belonging to Cc1nn(-c2c(Cl)cc(C(F)(F)F)cc2Cl)cc1S(C)(=O)=O and report it.
a: 168 to 169 °C

q: And what about the compound Fc1ccc(-c2nc(SCCCCSc3nc(-c4ccc(F)cc4)c(-c4ccc(F)cc4)[nH]3)[nH]c2-c2ccc(F)cc2)cc1 ?
a: 172 to 174 °C

----------
Experimental endpoint: melting point

CC(C)(CO)NC(=O)c1nn(-c2ccc(Cl)cc2F)c2c1C1CCC2C1 (stereo not given) : 158 to 160 °C
NS(=O)(=O)c1cc2c(s1)S(=O)CC(=O)N2 (stereo not given) : 222 to 223 °C
COc1ccc(-n2nc(C(C)(C)C)cc2NC(=O)c2nccc3cc(Oc4cc(NC(C)=O)ncn4)ccc23)cc1 : 156 °C
COc1cccc2c(Cl)c(C(=O)C(C)C)cnc12 : 90 to 92 °C
CN(c1cccs1)c1n[nH]c2ncnc(Nc3cccc(Cl)c3)c12 : 228 to 229 °C
NC(=O)CNC(=O)c1cccc(-c2ccc3c(n2)N(Cc2ccc(Cl)cc2Cl)CC3)c1 : 183 to 184 °C
CC(C)(Oc1ccc(C#N)cc1)C(O)Cc1cnccn1 (stereo not given) : 94 to 95 °C
CC(C)c1cc(CO)n(Cc2ccc(Cl)cc2Cl)n1 : 89 to 90 °C
C=Cn1cc(C(=O)O)c(=O)c2ccc(N3CCN(C)CC3)nc21 : 238 to 239 °C

q: Value lookup for melting point; key = CC(=C1SC(=S)NC1=O)c1ccccc1C(=O)O
a: 193 to 195 °C

----------
Listed below: melting point values for each entry.

Recorded results for 5 compounds are shown here.
CCCCCCP1C(O)C(O)P(CCCCCC)C(O)C1O (stereo unspecified) : 140 to 147 °C
O=C1COc2ccc(C3=Nc4cc(Cl)ccc4SC3c3ccccc3)cc2N1 (stereo unspecified) : 234 to 236 °C
C[C@@H]1CN2C(=O)c3ccccc3[C@@](O)(c3ccc(F)cc3)C2=N1 : 229 to 232 °C
O=C1c2ccccc2CCc2ccc(Cl)cc21 : 64 to 65 °C
Cc1ccc2c(c1C)OC(=O)C2c1ccc(C(C)C)cc1 (stereo unspecified) : 58 to 60 °C

# next compound below
q: Name the reported melting point value associated with the compound CCOC(=O)c1cn(Cc2ccccc2)c2cc(C3CC3)nn2c1=O
a: 160 to 165 °C

----------
Experimental endpoint: melting point

q: Report melting point for O=C(c1ccc(Cl)cc1)c1c(N2C(=O)c3ccccc3C2=O)sc(Br)c1CBr please.
a: 173 to 175 °C

q: Same thing, different compound: O=C1CC(C(F)(F)F)CC(=O)O1
a: 88 to 91 °C

q: // repeat for COc1cc(-c2oc3cc(I)ccc3c(=O)c2O)cc(OC)c1OCc1ccccc1 and report
a: 169 to 171 °C

q: Item: CCCCCCCCC=CCCCCCCCC(=O)OCCCCCCCCCC
a: 70 °C

q: Same question, CCOC(=O)c1cnn2c1nc(N(CC)CC)c1cnc3c(cnn3CC)c12 this time
a: 170 to 172 °C

q: Then CCn1nc(C(F)(F)F)c(CS(=O)(=O)C2=NOC(C)(CCl)C2)c1Cl (stereo unspecified) ?
a: 123 to 124 °C

q: Also CC(C)OC(=O)N1CCC(c2nc3cc(-c4ccc(C(N)=O)c(Cl)c4)ccc3o2)CC1 ?
a: 178 to 181 °C

q: And the next one, Nc1nc(NCCCCCCNS(=O)(=O)c2cccc3ccccc23)nc2ccccc12 ?
a: 98 to 101 °C

q: # repeat for CN1CCC2(CC1)OC(c1ccc(Cl)cc1)C1CCCCN12 (stereo unspecified)
a: 122 to 124 °C

q: Moving on to N#CC(N)c1ccc(F)cc1 (stereo unspecified)
a: 77.9 °C

----------
Listed here: items and their measured melting point.

Cc1cc(-c2cc(C(F)(F)F)nn2-c2ccc(S(N)(=O)=O)c(F)c2)ccc1-c1ccco1 : 78 to 80 °C
OC(CCCn1ccnc1)c1ccc(Cl)cc1Cl (stereo unspecified) : 91.5 to 94 °C
CC(C)(C)c1nnc2ccc(Cl)nn12 : 150 to 152 °C
CCn1c2ccccc2n2c(=O)c(C(=O)NC)cnc12 : 178 to 180 °C
CCCOc1ccc(CO)cc1-c1nc2c(CCC)nn(C)c2c(=O)[nH]1 : 174 to 175 °C
CCOC(=O)C=CC(=O)N(CC(C)(C)C)c1sc(Cl)cc1C(=O)c1ccccc1Cl : 79 to 81 °C
CC12CCC3c4ccc(O)cc4CC(Sc4ccc(O)cc4)C3C1CCC2O (stereo unspecified) : 140 to 145 °C
CC(C)C[C@H](NC(=O)NCc1ccccc1)C(=O)N[C@@H](C(C)C)[C@@H](O)c1c(-c2ccccc2)c1=O : 160 °C

q: Look up melting point: O=[N+]([O-])c1ccc(C2=NNC(CO)Cc3cc4c(cc32)OCO4)cc1 (stereo unspecified)
a: 132 to 134 °C

q: Please answer likewise for O=C(CCC(F)(F)Cl)Nc1ccccn1
a: 64 to 65 °C

----------
List of melting point values.

Please review the entries below; each comes with its answer.
CC(O)Cc1c(O)c2cccnc2n(-c2ccc(Cl)c(Cl)c2)c1=O (stereo unspecified) : 232 to 234 °C
CCc1cccc(-c2nc(C3CCCCC3)n(C)n2)n1 : 79.2 °C
O=C(C=Cc1ccccc1Sc1ccc(Cl)cc1)N1CCCC1=O : 144 to 147 °C
OC1=C(C(=S)Nc2ccccc2)c2nc3ccccc3n2CC1 : 224 to 227 °C
CCCCCCC/C=C/C(=O)Nc1ccccc1 : 54 to 55 °C
CCCOC1=NS(=O)(=O)N(C)C(Oc2ccc([N+](=O)[O-])cc2)=N1 : 129 to 131 °C
COc1cc(NC2CCN(S(=O)(=O)c3ccccc3)CC2)ccc1C(N)=O : 166 to 168 °C
COc1ccc(-n2nc(C(O)c3ccccc3)cc2-c2ccc(C)cc2)cc1 (stereo unspecified) : 101 to 103 °C
CCC(=O)OCC(OC(=O)CC)C1OC(OC(=O)CC)C(OC(=O)CC)C1OC(=O)CC (stereo unspecified) : 74.5 to 75.5 °C
Cn1c(-c2ccc(Cl)cc2)nc2cc(CN3CCN(C(c4ccccc4)c4ccccc4)CC3)ccc21 : 198 °C

q: What melting point value was documented for this compound, CC1CCN(C(=O)c2ccc([C@H]3CC[C@H](NC[C@H](O)COc4ccc(O)c(NS(C)(=O)=O)c4)CC3)cc2)CC1 ?
a: 90 to 100 °C

q: Record: Oc1ccc(CCNc2ncnc3nccnc23)cc1
a: > 210 °C

q: Field entry: CCOC(=O)c1ccc(C)nc1
a: 57 to 58 °C

q: Here is the next compound: CC(C)(C)OC(=O)c1ccc(Cl)c([N+](=O)[O-])c1
a: 66 to 67 °C

q: Same read-out for CC(C)=CCCC(C)=CCCC(C)=CCCC1(C)CCc2c(C)c(O)c(C)c(C)c2O1 (stereo unspecified) ?
a: 25 to 28 °C

q: Repeat with OCc1conc1-c1ccc(Cl)c(F)c1
a: 124 to 125 °C

q: For CN(C)c1cc(CC(C#N)=CNc2ccccc2)cc(N(C)C)c1C(C)(C)C then?
a: 150 °C

----------
Experimental endpoint: melting point

As a guide, the following entries are already answered.
CC(C)C[C@H](N)C(=O)NCCCCNC(=O)OCc1ccccc1 : 137 to 139 °C
CCCCCCCCOc1ccc(-c2nnn[nH]2)c(O)c1 : 142 to 146 °C
CC(=O)N(CCCC(=O)c1ccccc1)C(C)C : 36 to 39 °C

q: Given the entry COC(=O)c1nc(N2CCCC2)ccc1Oc1nc(OC)cc(OC)n1 , report its measured melting point.
a: 151 to 153 °C

----------
melting point: recorded values

COc1ccc2c(c1)N(CC(=O)O)C(=O)C(N)CC2 (stereo not given) : > 300 °C
N#Cc1ccc(C=NO)c(F)c1 : 179 to 182 °C
COCOc1ccc(OCc2ccc(OCc3nc(-c4ccccc4)oc3C)cc2)c(CC#N)c1 : 123 to 124 °C
Cc1cc(C2=NN(C(=O)NC3CC3)C(C)Cc3cc4c(cc32)OCO4)ccc1[N+](=O)[O-] (stereo not given) : 171 to 175 °C

Now for the compound whose melting point we want.
q: GET /values?readout=melting point&item= NS(=O)(=O)c1cc(C(=O)O)cc([N+](=O)[O-])c1Oc1ccccc1
a: 255 to 256 °C
